Test system: 138582-337-R-J1-PDC complex spheroid viability
Experiment: Anticancer human tumor 138582-337-R-J1-PDC patient-derived Merkel cell tumor cell line growth inhibition
Settings: second compound 1 µM; first compound 0.00949 µM; stronger effect = lower value
Text: Multicellular complex tumor spheroid response to LSD1 Inhibitor Iadademstat in combination with a variety of drugs and investigational agents in selected tumor cell lines The current study was undertaken to assess response to LSD1 inhibitors in combination with standard-of-care drugs and investigational agents in solid tumor complex spheroid models as well as in the K-562 leukemia. […] Compounds. […] If the clinical Cmax for an agent had not been determined, the highest concentration tested was 10 microM. […]
The reader will find reported viability, T/C values listed item by item below.
Kindly answer with a numeric value in %, unit omitted.

molecule	measurementKind	unitAbbrev	valueReported
CCN(c1cc(-c2ccc(CN3CCOCC3)cc2)cc(C(=O)NCc2c(C)cc(C)[nH]c2=O)c1C)C1CCOCC1 + NC1CC1c1ccc(-c2cccc(O)c2)cc1	viability, T/C	%	78.3

Q: Record Nc1ccccc1NC(=O)c1ccc(CNC(=O)OCc2cccnc2)cc1 + NC1CC1c1ccc(-c2cccc(O)c2)cc1 : what is its viability, T/C with 138582-337-R-J1-PDC complex spheroid viability?
Result: 72.1

Q: Please give the result for COc1cc(C2c3cc4c(cc3C(OC3OC5COC(C)OC5C(O)C3O)C3COC(=O)C23)OCO4)cc(OC)c1O (centres undefined) + NC1CC1c1ccc(-c2cccc(O)c2)cc1 too.
Result: 76.8

Q: Follow-up entry: NS(=O)(=O)OCC1CC(n2ccc3c(NC4CCc5ccccc54)ncnc32)CC1O (centres undefined) + NC1CC1c1ccc(-c2cccc(O)c2)cc1
Result: 82.2

###

Test system: 138582-337-R-J1-PDC complex spheroid viability
Assay: Anticancer human tumor 138582-337-R-J1-PDC cell line growth inhibition;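 note: spheroids exposed to agents for 7 days; 100% = DMSO vehicle control viability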
Conditions: second compound 0.316 µM; first compound 0.003 µM; stronger effect = lower value
Description: Multicellular complex tumor spheroid response to LSD1 Inhibitor Iadademstat in combination with a variety of drugs and investigational agents in selected tumor cell lines The current study was undertaken to assess response to LSD1 inhibitors in combination with standard-of-care drugs and investigational agents in solid tumor complex spheroid models as well as in the K-562 leukemia. […] Compounds. […] If the clinical Cmax for an agent had not been determined, the highest concentration tested was 10 microM. […]
Just a reminder that ties go to false (0): only viability, T/C strictly below 80% counts as true (1).

Worked examples, 2 compounds total:
In [3]: df
Out[3]:
                                   compound  assignedlabel
0  Nc1ccn(C2OC(CO)C(O)C2(F)F)c(=O)n1 (stereo unspecified) + NC1CC1c1ccc(-c2cccc(O)c2)cc1      false (0)
1  Nc1ccn(C2OC(CO)C(O)C2(F)F)c(=O)n1 (stereo unspecified) + NC1CCC(NC2CC2c2ccccc2)CC1      false (0)

Q: Say whether its viability, T/C is strictly beneath 80%. Entry: CCc1c2c(nc3ccc(O)cc13)-c1cc3c(c(=O)n1C2)COC(=O)[C@]3(O)CC + NC1CCC(NC2CC2c2ccccc2)CC1
Result: false (0)

Q: Entry Nc1ncn(C2CC(O)C(CO)S2)c(=O)n1 (stereo unspecified) + NC1CCC(NC2CC2c2ccccc2)CC1 please
Result: false (0)

Q: Continue with CCc1c2c(nc3ccc(O)cc13)-c1cc3c(c(=O)n1C2)COC(=O)[C@]3(O)CC + NC1CC1c1ccc(-c2cccc(O)c2)cc1
Result: true (1)
